# tgt: Leucine aminopeptidase (Plasmodium falciparum 3D7)
# Sequence (Q8IL11 whole entry): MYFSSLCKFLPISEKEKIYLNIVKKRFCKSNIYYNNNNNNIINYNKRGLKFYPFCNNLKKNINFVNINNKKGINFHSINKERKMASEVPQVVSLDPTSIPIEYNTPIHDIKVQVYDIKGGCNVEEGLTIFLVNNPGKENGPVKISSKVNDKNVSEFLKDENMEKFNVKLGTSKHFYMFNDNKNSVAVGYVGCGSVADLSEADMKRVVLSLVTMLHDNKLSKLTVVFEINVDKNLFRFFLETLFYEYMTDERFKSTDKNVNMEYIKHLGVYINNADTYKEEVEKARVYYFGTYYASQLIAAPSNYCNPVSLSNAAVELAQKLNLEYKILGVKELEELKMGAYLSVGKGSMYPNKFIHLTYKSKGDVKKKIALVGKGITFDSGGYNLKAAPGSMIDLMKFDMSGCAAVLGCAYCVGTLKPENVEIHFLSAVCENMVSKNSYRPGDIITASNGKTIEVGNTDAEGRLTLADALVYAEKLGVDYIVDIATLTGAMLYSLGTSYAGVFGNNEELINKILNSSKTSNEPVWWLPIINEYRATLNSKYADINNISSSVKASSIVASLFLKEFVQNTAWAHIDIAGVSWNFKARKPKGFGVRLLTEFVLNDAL
# procedure_text: P. falciparum M17LAP inhibitors, primary screen, biochemical, fluorogenic H-Leu-NHMec substrate, 1536-well (AID 1619)
# Format: functional
Activity calls are given as the source filed them.
This listing pairs compounds with measured IC50.

Please review the entries below; each comes with its answer.
Cn1ccnc1Sc1nc2ccccc2nc1NS(=O)(=O)c1ccccc1: 29.2 µM (active)
Nc1[nH]ncc1C(=O)Nc1cccc(C(F)(F)F)c1: 44.5 µM (active)
COc1ccc(NC(=O)CSc2nc(O)cc(=O)n2C)cc1: 2.59 µM (active)
CC1=NNC(=O)C1CC(=O)N/N=C(\C)c1ccco1 (configuration not stated): 12.3 µM (active)

-- ask // IC50 lookup, key: `O=C(O)c1cc(N/N=C/c2ccc(OCc3ccccc3)cc2)ccc1Cl`
-- reply 20 µM (active)

-- ask And the next one, CCOC(=O)c1c(-c2ccc(-c3ccccc3)cc2)csc1NC(=O)C1C2CCC(O2)C1C(=O)O (configuration not stated) ?
-- reply 6.09 µM (active)

-- ask And the next one, `O=C(O)CSc1nc(-c2ccc(Cl)cc2)nc2c1oc1ccccc12` ?
-- reply 34.6 µM (active)

-- ask And the next one, `Cc1cc(NS(=O)(=O)c2ccc(NC(=O)Nc3ccc4c(c3)OCO4)cc2)no1` ?
-- reply 13.3 µM (active)

-- ask And the next one, `CCOC(=O)c1sc(NC(=O)CSc2nnc[nH]2)c(C#N)c1C` ?
-- reply 73 µM (active)

-- ask And the next one, O=C(O)C1OC(Oc2c(-c3ccc(O)c(O)c3)oc3cc(O)cc(O)c3c2=O)C(O)C(O)C1O (configuration not stated) ?
-- reply 48.2 µM (active)

-- ask And the next one, COc1ccc(C2CC(=O)c3sc(N)nc3C2)cc1 (configuration not stated) ?
-- reply 30.1 µM (active)

-- ask And the next one, COC(=O)c1c(-c2ccc(C)cc2)csc1NC(=O)C1CC=CCC1C(=O)O (configuration not stated) ?
-- reply 1.2 µM (active)

---

# tgt: Phospholipase A2 (Homo sapiens)
# Sequence (P04054 whole entry): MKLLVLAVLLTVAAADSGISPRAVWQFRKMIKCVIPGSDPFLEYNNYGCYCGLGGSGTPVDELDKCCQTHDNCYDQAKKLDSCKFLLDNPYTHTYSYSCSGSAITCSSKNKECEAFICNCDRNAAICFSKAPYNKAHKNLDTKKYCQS
# Format: functional
The source made the active and inactive calls.
This listing pairs compounds with measured IC50.

-- ask Observed IC50 on Phospholipase A2 (Homo sapiens) for `COc1cccc(-c2nc(SCC(=O)Nc3nc(-c4ccccc4)c(C)s3)[nH]c(=O)c2C#N)c1` , please.
-- reply 15 µM (active)

-- ask And the next one, `O=C(COc1ccccc1-c1ccccc1)NCc1cccc(Cl)c1` ?
-- reply 7.72 µM (active)

-- ask And the next one, `O=C1Nc2cc(Cl)c(Cl)cc2N(O)N1c1cc(Cl)cc(Cl)c1` ?
-- reply 13.7 µM (active)

-- ask And the next one, `CCOc1ccc(NCc2ccccc2OCc2cccc(F)c2)cc1` ?
-- reply 5.3 µM (active)

-- ask And the next one, CC1CCCCC1NC(=O)COC(=O)c1c2c(nc3ccccc13)/C(=C/c1ccco1)CC2 (stereo unspecified) ?
-- reply 8.31 µM (active)

-- ask And the next one, `Oc1ccc(N=Nc2nc(-c3ccccc3)c(-c3ccccc3)[nH]2)cc1` ?
-- reply 6.36 µM (active)

---

# tgt: Protein RecA (Mycobacterium tuberculosis, UniProt P9WHJ3)
# procedure_text: Fluorescence Cell-Free Homogeneous Dose Retest to Identify Inhibitors of RecA-Intein Splicing Activity. [Related pubchem assays (depositor defined):AID2097, AID2223, AID489010, AID492950]
# Format: functional
Active and inactive are the calls of the source.
Lab note: assign the record to one of y for active, n for inactive

N#Cc1cc(-c2ccccc2)nc(Oc2ccccc2)n1: y

-- ask What outcome does the record of this test show for `Cc1ccc(C)c(Sc2ccc(NC(=O)CCl)cc2)c1` ?
-- reply y

-- ask And the next one, `CC(=O)c1cccc(NC(=O)CSc2ncc(C(=O)Nc3ccccc3)c(=O)n2C)c1` ?
-- reply y

-- ask And the next one, `Cc1oc2c(c1C(=O)N1CCC(C)CC1)C(=O)c1ccccc1C2=O` ?
-- reply y

-- ask And the next one, COc1cc(NC2CCCCC2O)c2nc(-c3ccc(Cl)cc3)ccc2c1 (configuration not stated) ?
-- reply y

-- ask And the next one, `CCOC(=O)CCS(=O)(=O)c1nc(-c2ccccc2)cc(C(F)(F)F)n1` ?
-- reply y

-- ask And the next one, COc1ccccc1/C=C/C1(C(=O)NC2CCCC2)CC(=O)N1c1ccc(C)cc1 (configuration not stated) ?
-- reply y

-- ask And the next one, `O=C(CNC1=NCCC1)c1ccc(Cl)cc1` ?
-- reply y

-- ask And the next one, `Fc1ccc(Sc2nc(-c3ccccc3)nnc2C(F)(F)F)cc1` ?
-- reply y

-- ask And the next one, `COc1ccc(C(=O)Nc2ccncc2)cc1[N+](=O)[O-]` ?
-- reply n

-- ask And the next one, `Cc1ccc(C(c2c(C)n[nH]c2O)c2c(C)n[nH]c2O)cc1[N+](=O)[O-]` ?
-- reply y

-- ask And the next one, `Cc1[nH]n(C)c(=O)c1C(=O)c1c(-c2c(Cl)cccc2Cl)noc1C` ?
-- reply y

-- ask And the next one, CCc1n[nH]c2c1C(c1ccsc1)C(C#N)=C(N)O2 (configuration not stated) ?
-- reply y

-- ask And the next one, `N=C1/C(=C\c2ccc(OC(=O)c3ccc(F)cc3)cc2)C(=O)N=C2SC(N3CCOCC3)=NN12` ?
-- reply y

---

This listing pairs molecules with measured AC50.
# tgt: Heat shock protein HSP 90-alpha (Homo sapiens)
# Type: functional, organism-based
Activity calls are given as the source filed them.

Please review the entries below; each comes with its answer.
Cc1cccc(COC(=O)CCCNC(=O)c2ccc(Cl)cc2)c1: 8.04 µM (active)
CC(=O)NC(c1ccccc1)c1cc(Cl)c2cccnc2c1O (centres undefined): 3.79 µM (active)

-- ask // AC50 lookup, key: `Oc1ccc(N=Nc2nc(-c3ccccc3)c(-c3ccccc3)[nH]2)cc1`
-- reply 4.75 µM (active)

-- ask And the next one, O=C(Nc1ccccc1)C(Cl)C(=O)c1ccccc1 (centres undefined) ?
-- reply 0.786 µM (active)

---

# tgt: 26S proteasome non-ATPase regulatory subunit 14 (Homo sapiens, UniProt O00487)
# Sequence (O00487 whole entry): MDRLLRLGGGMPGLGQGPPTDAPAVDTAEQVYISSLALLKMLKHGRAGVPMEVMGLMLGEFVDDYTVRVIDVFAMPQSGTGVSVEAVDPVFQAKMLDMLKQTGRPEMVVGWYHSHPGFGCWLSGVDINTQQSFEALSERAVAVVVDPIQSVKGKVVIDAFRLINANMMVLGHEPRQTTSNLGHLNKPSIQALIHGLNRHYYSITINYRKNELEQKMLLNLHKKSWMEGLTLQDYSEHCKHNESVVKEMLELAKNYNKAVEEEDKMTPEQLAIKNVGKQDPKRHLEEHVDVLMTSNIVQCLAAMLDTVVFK
# procedure_text: inhibition of proteasome subunit RPN11 – biochemical, fluorescence polarization, uHTS hits, confirmation (AID 602368)
# Format: functional
The source made the active and inactive calls.
property_name: IC50

Please review the entries below; each comes with its answer.
Cc1cccc(OCc2nnc(SCc3nc(O)c4ccc(C(F)(F)F)cc4n3)o2)c1: 21.5 µM (active)
O=C(N/N=C/c1ccccc1F)c1cc2c(ccc3ccccc32)o1: 18.2 µM (active)
CCCc1c(C)nc2ccc(C(=O)O)cc2c1S: 22.8 µM (active)
CS(=O)(=O)C1=NSC2=NC(=O)/C(=C\c3cccn3-c3ccccc3Cl)C(=N)N21: 30 µM (active)

Now, please, on to the next compound.
-- ask // IC50 lookup, key: `COC(=O)c1[nH]c2ccc(C)cc2c1NC(=O)CN1CCCc2ccccc21`
-- reply 16.7 µM (active)

---

# tgt: Heat shock factor protein 1 (Mus musculus)
# Sequence (P38532 whole entry): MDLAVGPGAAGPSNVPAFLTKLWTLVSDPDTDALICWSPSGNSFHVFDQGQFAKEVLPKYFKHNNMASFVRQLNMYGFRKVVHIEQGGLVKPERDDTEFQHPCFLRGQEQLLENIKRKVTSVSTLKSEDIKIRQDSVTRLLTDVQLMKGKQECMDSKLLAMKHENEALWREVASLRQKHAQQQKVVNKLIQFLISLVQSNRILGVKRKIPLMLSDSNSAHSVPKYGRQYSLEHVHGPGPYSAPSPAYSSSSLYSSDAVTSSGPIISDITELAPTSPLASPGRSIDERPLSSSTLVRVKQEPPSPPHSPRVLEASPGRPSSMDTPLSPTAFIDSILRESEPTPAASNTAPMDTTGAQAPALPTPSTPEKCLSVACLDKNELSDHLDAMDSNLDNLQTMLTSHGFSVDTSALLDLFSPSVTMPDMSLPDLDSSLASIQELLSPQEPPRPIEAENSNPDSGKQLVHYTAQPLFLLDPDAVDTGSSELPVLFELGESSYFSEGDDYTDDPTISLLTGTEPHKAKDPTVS
# procedure_text: enhancement of HSF1-driven luciferase signal – cell-based, NIH3T3, luminescence, dose retest, confirmation (AID 435004);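 note: stress induced by proteasome inhibitor MG132 added 30 min after compound; luciferase reporter driven by HSF1 response element in NIH3T3 cells; actives raise luminescence as potentiators of the MG132 stress response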
# Assay type: functional
The source made the active and inactive calls.
Lab note: assign the record to one of true = active, false = inactive

These recorded examples may help you get a feel for the data.
N#C/C(=C(\O)C(F)(F)F)c1nnc2n1CCCCC2: false
COc1ccc(C(=O)COC(=O)c2cccnc2SC)cc1: false
COc1ccc(/C(C)=N/NC(=S)NCc2ccco2)cc1: false
COc1ccc(/C=C/C(=O)N(C(C)C)C(C)C)cc1Br: true
Cc1ccc(N(CC(=O)NCCc2ccc(F)cc2)S(=O)(=O)c2ccc(Cl)c([N+](=O)[O-])c2)c(C)c1: true
CC(NC(=O)/C=C/c1ccco1)c1nc2ccccc2n1Cc1cccc(Cl)c1 (stereo unspecified): false
N#C/C(=C\c1ccc(Sc2nc3ccccc3[nH]2)o1)c1ccccc1: true
COc1cc(-c2cn(S(=O)(=O)c3cccc4nsnc34)nc2N)cc(OC)c1OC: false
CN(C)c1ccc(C(CNC(=O)c2ccccc2)c2c[nH]c3ccccc23)cc1 (stereo unspecified): false
O=C(Nc1ccccc1C(=O)N1CCCC1)c1ncoc1-c1cccc(Cl)c1: false

-- ask What outcome does the record of this test show for `O=C1c2cccc3c([N+](=O)[O-])ccc(c23)C(=O)N1O` ?
-- reply true

---

# tgt: Induced myeloid leukemia cell differentiation protein Mcl-1 (Homo sapiens, UniProt Q07820)
# Sequence (Q07820 whole entry): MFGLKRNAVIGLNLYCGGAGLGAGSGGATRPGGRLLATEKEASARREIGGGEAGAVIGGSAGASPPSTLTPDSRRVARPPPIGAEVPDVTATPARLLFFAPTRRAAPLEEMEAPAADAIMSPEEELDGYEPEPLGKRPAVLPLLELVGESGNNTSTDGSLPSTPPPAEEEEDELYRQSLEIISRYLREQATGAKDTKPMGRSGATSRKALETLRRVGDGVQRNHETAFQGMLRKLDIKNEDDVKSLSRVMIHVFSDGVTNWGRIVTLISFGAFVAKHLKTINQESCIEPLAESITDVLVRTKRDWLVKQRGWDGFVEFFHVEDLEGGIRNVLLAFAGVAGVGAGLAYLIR
# Type: functional
Activity calls are given as the source filed them.
This listing pairs molecules with measured IC50.

-- ask // IC50 lookup, key: `CCOC(=O)c1c(NC(=O)c2cc(-c3ccc(O)cc3)on2)sc(C(C)=O)c1C`
-- reply 3.69 µM (active)

-- ask And the next one, `COc1cc(SSc2cc(OC)cc([N+](=O)[O-])c2N)c(N)c([N+](=O)[O-])c1` ?
-- reply > 54 µM (active)

-- ask And the next one, `CS(=O)(=O)C1=NSC2=NC(=O)/C(=C\c3cccn3-c3ccccc3Cl)C(=N)N21` ?
-- reply 4.35 µM (active)

-- ask And the next one, `CCOc1cc(CNc2ccc(N3CCCC3)cc2)cc(Cl)c1OC` ?
-- reply 2.43 µM (not active)

-- ask And the next one, `O=C1NC(=O)/C(=C\c2ccc(O)cc2O)S1` ?
-- reply 2.2 µM (active)

-- ask And the next one, O=C(CN1C(=O)/C(=C2\SC(=S)N(C3CCS(=O)(=O)C3)C2=O)c2ccccc21)Nc1ccccc1 (stereo unspecified) ?
-- reply 5.8 µM (active)
